Values compiled from patent US8846861B2.

Molecular target: ScFv anti CEA-CPG2 fusion protein
Assay: Binding studies using Surface Plasmon Resonance (Biacore), peptide immobilised on CM5 chip
Set-up: species or system Psuedomonas
Conditions: 2 state reaction fit; read-out: dissociation constant (binding constant KD)
Source text: Peptide clearing agents of the invention are exemplified herein displaying appropriate kinetics and affinity properties. Such kinetic and affinity properties may be measured using any suitable means. […] Data obtained using a suitable instrument may be analysed by appropriate software to automatically derive the relevant parameters. […]
measure name: pKd
Formally, pKd is defined as -log10 of the concentration c, with c in mol/L.

Param item = C[C@@H](NC(=O)[C@@H](N)CO[C@H]1OC(CO)[C@H](O)C(O)C1O)C(=O)Nc1ccc2ccccc2c1C(=O)NC(CCC(=O)O)C(=O)O (stereo partly shown) ; retrieve measured pKd.
8.05
